- System Tested: N-terminal Xaa-Pro-Lys N-methyltransferase 1 (Homo sapiens) (UniProt Q9BV86)
- Sequence (Q9BV86 whole entry, looked up): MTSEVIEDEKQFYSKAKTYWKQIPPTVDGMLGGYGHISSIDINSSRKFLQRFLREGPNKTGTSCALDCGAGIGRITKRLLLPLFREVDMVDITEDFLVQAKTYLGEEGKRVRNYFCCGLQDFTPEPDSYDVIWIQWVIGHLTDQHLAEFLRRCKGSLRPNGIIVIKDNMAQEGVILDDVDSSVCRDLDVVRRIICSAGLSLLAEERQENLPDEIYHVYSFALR
- Test: Primary qHTS for Inhibitors of N-terminal methyltransferase 1 (NTMT1): MTaseGlo Assay; further: nearly all actives have a fitted effect of over 65% in size
- Condition Parameters: NTMT1 MTase-Glo SAH luminescence, purified enzyme; series mostly up to 114 µM
The campaign covered roughly 59,000 compounds. About 1,500 (2.5%) were called active. Inconclusive results (about 10%) are left out. The call rests on the fitted dose curve; in most records, active means well fitted inhibition curve with a large enough effect; inconclusive means small, poorly fitted or top-dose-only effect; inactive means flat fitted curve, though single readings scatter. For the sample, actives were picked, then their nearest neighbours and some compounds at random.
Classes used: t = active, f = inactive

Molecule	Group Label
Cc1cccc(N2CCN(c3ccc(C(=O)O)cc3NC(=O)c3ccccc3F)CC2C)c1 (stereo not given)	t
Cc1ccc(CNc2ccc(N3CCCCC3)cc2)cc1	f
CN(CC(F)(F)F)c1nc(NCc2ccc(-c3cccnc3)cc2)c2ccccc2n1	f
CC(C)c1ccccc1-c1nc(NCc2ccc(-c3cccnc3)cc2)c2occc2n1	f
Cc1cccc(N2CCN(C(=O)c3cc4c(=O)oc5ccccc5c4s3)CC2C)c1 (stereo not given)	f

* * *

- System Tested: N-terminal Xaa-Pro-Lys N-methyltransferase 1 (Homo sapiens)
- Test: Primary qHTS for Inhibitors of N-terminal methyltransferase 1 (NTMT1): MTaseGlo Assay; further: nearly all actives have a fitted effect of over 65% in size
- Condition Parameters: NTMT1 MTase-Glo SAH luminescence, purified enzyme; series mostly up to 114 µM
The whole screen tested about 59,000 compounds, of which about 1,500 (2.5%) were called active. Roughly 10% stayed inconclusive and do not appear here. Calls come from the whole dose curve; as a rule, active = well fitted inhibition curve with a large enough effect; inconclusive = small, poorly fitted or top-dose-only effect; inactive = flat fitted curve, though single readings scatter. The sample holds actives, similar compounds and a random draw of the others, so the mix is not that of the screen.
Classes used: label 1 (active), label 0 (inactive)

Molecule	Group Label
O=C(Nc1ccc(Cl)c(Cl)c1)Nc1nnc(C2CCCCC2)s1	label 0
N#Cc1nc(Nc2cccc(Cl)c2)nc(NC2CCCC2)n1	label 0
Nc1ccc2c(=O)n3nc(Nc4ccc5c(c4)CCC5)sc3nc2c1	label 0
Cc1ccc(C)c(N2CCN(CCCNC(=O)Nc3ccc(Cl)cc3)CC2)c1	label 0
O=C(Nc1ccc(Cl)c(Cl)c1)Nc1nnc(N2CCNCC2)s1	label 1
COc1ccc2c(c1)Cc1sc(NC(=O)c3ccccc3Br)nc1-2	label 1
Cn1c2cc(B(O)O)sc2c2cnn(Cc3ccccc3F)c(=O)c21	label 0
Cc1ccc2nc3sc(C(=O)NCCc4cccnc4)cc3cc2c1	label 0
COc1cccc(CNc2ccc(S(=O)(=O)Nc3cccs3)cc2)c1O	label 0
COc1ccc(C2Nc3cccc(OC)c3C(=O)N2Cc2ccccc2)cc1COc1ccc(NC(C)=O)cc1 (configuration not stated)	label 0
CCOc1ccc(NC(=O)c2c(NCc3cccc(OC)c3OC)sc3c2CCC3)cc1	label 0
COc1ccc(CC(=O)Nc2ccc(-c3nc4ccccc4s3)c(C)c2)cc1	label 0
Cc1cc2c(s1)c1cnn(Cc3c(F)cccc3Cl)c(=O)c1n2C	label 0
Cc1cc(C(=O)Nc2cccc(C(F)(F)F)c2)c2c(C)nn(-c3cccc(F)c3)c2n1	label 0
COc1ccc(C2Nc3ccccc3C(=O)N2Cc2ccc(CNC(=O)CO)cc2)cc1COc1ccc(NC(C)=O)cc1 (configuration not stated)	label 0
Fc1cc(Nc2nc(-c3ccncc3)nc3ccccc23)ccc1-n1cncn1	label 0
O=C(Nc1ccc(Cl)c(Cl)c1)Nc1nnc(-c2ccc(F)cc2)s1	label 0
CCOc1cccc(-c2cc(-c3n[nH]c(=O)n3CC)c3ccccc3n2)c1	label 0
N#CSc1cc(SC#N)c(N)nc1N	label 1
CC(C)c1ccc(C2CC(=O)N3CN(C4CCCCC4)CSC3=C2C#N)cc1 (configuration not stated)	label 1
COc1ccc(C[C@H](C(=O)O)N2C(=O)c3ccc(C(=O)O)cc3C2=O)cc1	label 0
Cc1cn(CCN2CCN(c3ccccc3-c3cc(C#N)cc(C(=O)NCCCN4CCCC4)c3)CC2)c2ccccc12	label 1

* * *

- System Tested: N-terminal Xaa-Pro-Lys N-methyltransferase 1 (Homo sapiens) (UniProt Q9BV86)
- Test: Primary qHTS for Inhibitors of N-terminal methyltransferase 1 (NTMT1): MTaseGlo Assay; further: nearly all actives have a fitted effect of over 65% in size; further: potency means the concentration at half of the fitted maximal effect
- Condition Parameters: NTMT1 MTase-Glo SAH luminescence, purified enzyme; series mostly up to 114 µM
- From the text: Assay Submitter (PI): Rong Huang Ph.D. Purdue University, West Lafayette, IN 47907 The N-terminal methytransferase 1 is the first methyltransferase that methylates protein alpha-N-amines and plays an important role in regulating cell mitosis, chromatin interactions and DNA repair. […] To address this unmet need, a panel of assay is created and established to enable quantitative high-throughput screening (qHTS) for novel, potent, and selective small molecule NTMT1 inhibitors. […]
The whole screen tested about 59,000 compounds, of which about 1,500 (2.5%) were called active. Not shown: some 10% with an inconclusive outcome. For the sample, actives were picked, then their nearest neighbours and some compounds at random.

Smiles Code	Potency
CCN(CC)CCNC(=O)Cn1ncc2c3ccccc3n(Cc3ccccc3C)c2c1=O	89.1 µM (active)
Cc1ccc(N2CCN(C(=S)Nc3cc(C)ccn3)CC2)cc1	79.4 µM (active)
FC(F)(F)c1cccc(N2CCN(C(=S)Nc3ccncc3)CC2)c1	inactive
COC(=O)c1ccc(NC(=O)c2cc(-c3ccc(C)c(C)c3)nc3ccccc23)cc1	inactive
CCN(CCCNC(=O)Cn1ncc2c3ccccc3n(C)c2c1=O)Cc1ccccc1	inactive

* * *

- System Tested: N-terminal Xaa-Pro-Lys N-methyltransferase 1 (Homo sapiens) (UniProt Q9BV86)
- Test: Primary qHTS for Inhibitors of N-terminal methyltransferase 1 (NTMT1): MTaseGlo Assay; further: nearly all actives have a fitted effect of over 65% in size
- Condition Parameters: NTMT1 MTase-Glo SAH luminescence, purified enzyme; series mostly up to 114 µM
Among all 59,000 compounds or so, about 1,500 (2.5%) were called active. Not shown: some 10% with an inconclusive outcome. Calls come from the whole dose curve; as a rule, active = well fitted inhibition curve with a large enough effect; inconclusive = small, poorly fitted or top-dose-only effect; inactive = flat fitted curve, though single readings scatter. What follows is part of a selection rich in actives, with near analogues and random picks from the rest.
Classes used: active, inactive

Molecule	System Tested	Group Label
O=C(CNC(=O)c1ccc(Cl)cc1Cl)OC(C(=O)Nc1cc(C(F)(F)F)ccc1Cl)c1ccccc1 (stereo not given)	N-terminal Xaa-Pro-Lys N-methyltransferase 1 (Homo sapiens) (UniProt Q9BV86)	inactive
O=C(Nc1ccc(S(=O)(=O)N2CCC(c3nc4ccccc4s3)CC2)cc1)c1ccccc1F	N-terminal Xaa-Pro-Lys N-methyltransferase 1 (Homo sapiens) (UniProt Q9BV86)	inactive
Cc1cc(C)cc(OC(C)C(=O)Nc2nc3c(s2)CCCC3)c1 (stereo not given)	N-terminal Xaa-Pro-Lys N-methyltransferase 1 (Homo sapiens) (UniProt Q9BV86)	inactive
O=C(Nc1nc2c(s1)CCCC2)c1ccccc1F	N-terminal Xaa-Pro-Lys N-methyltransferase 1 (Homo sapiens) (UniProt Q9BV86)	active
COc1ccc(C(=O)N(Cc2ccccc2)Cc2ccc(OC)c(COc3ccc(NC(C)=O)cc3)c2)c(O)c1	N-terminal Xaa-Pro-Lys N-methyltransferase 1 (Homo sapiens) (UniProt Q9BV86)	inactive
O=C1NS(=O)(=O)c2cc(Cl)ccc21	N-terminal Xaa-Pro-Lys N-methyltransferase 1 (Homo sapiens) (UniProt Q9BV86)	inactive
CC(C)(c1ccc(OCC(O)CO)cc1)c1ccc(OCC(O)CCl)cc1 (stereo not given)	N-terminal Xaa-Pro-Lys N-methyltransferase 1 (Homo sapiens) (UniProt Q9BV86)	inactive
CN(C)CC(=O)NC1CCCc2c1cnn2-c1ccc(F)cc1F (stereo not given)	N-terminal Xaa-Pro-Lys N-methyltransferase 1 (Homo sapiens) (UniProt Q9BV86)	inactive
O=C(Nc1ccc([S+](=O)([O-])Nc2nccs2)cc1)c1ccn[nH]1	N-terminal Xaa-Pro-Lys N-methyltransferase 1 (Homo sapiens) (UniProt Q9BV86)	inactive
CN(C)C/C=C/C(=O)Nc1ccc(C(=O)N2CCC[C@@H](Nc3ncc(Cl)c(-c4c[nH]c5ccccc45)n3)C2)cc1	N-terminal Xaa-Pro-Lys N-methyltransferase 1 (Homo sapiens) (UniProt Q9BV86)	inactive

* * *

- System Tested: N-terminal Xaa-Pro-Lys N-methyltransferase 1 (Homo sapiens)
- Test: Primary qHTS for Inhibitors of N-terminal methyltransferase 1 (NTMT1): MTaseGlo Assay; further: nearly all actives have a fitted effect of over 65% in size
- Condition Parameters: NTMT1 MTase-Glo SAH luminescence, purified enzyme; series mostly up to 114 µM
The whole screen tested about 59,000 compounds, of which about 1,500 (2.5%) were called active. About 10% were inconclusive and are not listed. The call rests on the fitted dose curve; in most records, active means well fitted inhibition curve with a large enough effect; inconclusive means small, poorly fitted or top-dose-only effect; inactive means flat fitted curve, though single readings scatter. For the sample, actives were picked, then their nearest neighbours and some compounds at random.
Classes used: TRUE = active, FALSE = inactive

Molecule	Group Label
Cc1cc(N[S+](=O)([O-])c2ccc(NC(=O)Cc3ccc(F)c(C(F)(F)F)c3)cc2)no1	FALSE
CC1=C(C(=O)Nc2ccccc2C)C(c2ccccc2Br)N=C(Nc2nc3ccccc3o2)N1 (centres undefined)	FALSE
CCOc1ccc(CCNC(=O)c2cc3ccccc3n2Cc2ccc(Cl)c(F)c2)cc1OCC	FALSE
COc1ccc(C2Nc3ccccc3C(=O)N2Cc2ccco2)cc1COc1cccc(NC(C)=O)c1 (centres undefined)	FALSE
CC(C)(C)NS(=O)(=O)c1cccc(Nc2nn3c(=O)c4ccccc4nc3s2)c1	FALSE
Cc1c(C)n(Cc2ccc(Cl)cc2)c2ccc(C(=O)N3CCN(c4ccccc4F)CC3)cc12	FALSE
CCN(CC)c1ccc(NC(=O)CN(C)Cc2c(O)ccc3ccccc23)cc1	FALSE
O=S1(=O)N=C(Oc2cccc(Br)c2)c2ccccc21	FALSE
Cc1ccc(-n2ncc3c(NCCCn4ccnc4)ncnc32)cc1Cl	TRUE
Cc1cc(NS(=O)(=O)c2cc3c(cc2F)NC(=O)CC3)ccc1F	FALSE
Nc1ccccc1N	TRUE
Oc1ccc(/C=C/c2c(F)cccc2F)c2cccnc12	FALSE
C[C@H](NC(=O)c1c(N)nn2cccnc12)c1cc2cccc(C#Cc3cnn(C)c3)c2c(=O)n1-c1ccccc1	FALSE
O=S(=O)(Nc1cccc2ccccc12)c1ccc(NCc2ccc(Br)cc2O)cc1	FALSE

Recorded values, source PubChem BioAssay AID1645870.
